Entry source: patent US20100168102A9

target: human ROCKα/ROCKII mix (Homo sapiens); construct: purchased Upstate Biotechnology 14-451; test: Biochemical assay for ROCK (fluorescence polarization, ROCK IMAP Kit)
Sequence (O75116 11-552 limits assumed): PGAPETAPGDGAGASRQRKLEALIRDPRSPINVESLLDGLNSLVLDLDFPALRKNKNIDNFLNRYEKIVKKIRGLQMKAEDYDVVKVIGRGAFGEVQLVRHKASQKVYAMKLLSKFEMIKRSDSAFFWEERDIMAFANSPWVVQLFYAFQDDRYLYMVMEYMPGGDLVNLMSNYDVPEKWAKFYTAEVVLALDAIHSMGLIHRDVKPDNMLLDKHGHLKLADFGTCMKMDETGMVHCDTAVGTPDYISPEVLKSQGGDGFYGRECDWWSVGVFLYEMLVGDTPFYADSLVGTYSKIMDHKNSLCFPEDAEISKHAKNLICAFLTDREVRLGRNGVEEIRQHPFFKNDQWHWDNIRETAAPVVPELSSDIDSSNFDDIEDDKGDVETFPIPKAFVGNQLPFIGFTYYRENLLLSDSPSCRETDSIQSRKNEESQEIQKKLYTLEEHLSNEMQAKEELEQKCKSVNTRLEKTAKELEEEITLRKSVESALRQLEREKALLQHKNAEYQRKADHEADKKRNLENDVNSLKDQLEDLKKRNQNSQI
quantity_kind: IC50

Guide cases for IC50, answers given:
* Cc1ccccc1CNC(=O)NCC(N)c1ccc(C(=O)Nc2ccncc2)cc1 (stereo not shown) | 0.05 to 0.5 µM
* NC(c1ccc(C(=O)Nc2ccncc2)cc1)C1CCCN1C(=O)C1(c2ccc(Cl)cc2Cl)CC1 (stereo not shown) | 0.5 to 5 µM
* Cc1ccc(CC(=O)N2CCCC2C(N)c2ccc(C(=O)Nc3ccncc3)cc2)cc1 (stereo not shown) | 0.5 to 5 µM
* N[C@H](CC(=O)NC1COc2ccccc21)c1ccc(C(=O)Nc2ccncc2)cc1 (mixture of isomers) | < 0.05 µM
* COc1ccc(C2(C(=O)N3CCCC3C(N)c3ccc(C(=O)Nc4ccncc4)cc3)CC2)cc1 (stereo not shown) | 0.5 to 5 µM

[ask] Using the record for NC(CNC(=O)Nc1ccc2ccccc2c1)c1ccc(C(=O)Nc2ccncc2)cc1 (stereo not shown) , report its IC50.
[reply] 0.05 to 0.5 µM

[ask] Dear colleague, I am looking for the recorded IC50 of the following molecule: NC(c1ccc(C(=O)Nc2ccncc2)cc1)C1CCCN1C(=O)Cc1ccc(C(F)(F)F)cc1 (stereo not shown)
[reply] 0.5 to 5 µM

[ask] I'd like to know its IC50. The molecule in question is NC(c1ccc(C(=O)Nc2ccncc2)cc1)C1CCCN1C(=O)Cc1cccc(Br)c1 (stereo not shown)
[reply] 0.05 to 0.5 µM

[ask] Requested read-out: IC50. Entry: COc1ccc(C2(C(=O)N3CCCC3C(N)c3ccc(C(=O)Nc4ccncc4)cc3)CCCC2)cc1 (stereo not shown)
[reply] 0.5 to 5 µM

[ask] # IC50 lookup, item NC(c1ccc(C(=O)Nc2ccncc2)cc1)C1CCCN1C(=O)Cc1cccc(Cl)c1 (stereo not shown)
[reply] 0.5 to 5 µM

----------
Reported IC50 values for a set of compounds
molecular target: PKC epsilon (Homo sapiens); construct: purchased Invitrogen P2282; assay: Biochemical assay for PKC epsilon (fluorescence polarization, Protein Kinase C Assay Kit, Red); conditions: compounds of Formula XIV, Table 3; read-out: IC50 μM PKCε

- Cc1ccc(C)c(CNC(=O)CC(N)c2ccc(C(=O)Nc3ccncc3)cc2)c1 (stereo not shown): 0.5 to 5 µM
- COc1cccc(OC)c1CNC(=O)CC(N)c1ccc(C(=O)Nc2ccncc2)cc1 (stereo not shown): 0.5 to 5 µM

[ask] What value of IC50 has been reported for the following compound? N#CCCN(C(=O)CC(N)c1ccc(C(=O)Nc2ccncc2)cc1)C1CC1 (stereo not shown)
[reply] 5 to 50 µM

[ask] What measured IC50 goes with CCOc1ccccc1CCNC(=O)CC(N)c1ccc(C(=O)Nc2ccncc2)cc1 (stereo not shown) ?
[reply] 0.5 to 5 µM

----------
Target: PKC epsilon (Homo sapiens, UniProt Q02156)
Construct: purchased Invitrogen P2282
Sequence (Q02156 1-737): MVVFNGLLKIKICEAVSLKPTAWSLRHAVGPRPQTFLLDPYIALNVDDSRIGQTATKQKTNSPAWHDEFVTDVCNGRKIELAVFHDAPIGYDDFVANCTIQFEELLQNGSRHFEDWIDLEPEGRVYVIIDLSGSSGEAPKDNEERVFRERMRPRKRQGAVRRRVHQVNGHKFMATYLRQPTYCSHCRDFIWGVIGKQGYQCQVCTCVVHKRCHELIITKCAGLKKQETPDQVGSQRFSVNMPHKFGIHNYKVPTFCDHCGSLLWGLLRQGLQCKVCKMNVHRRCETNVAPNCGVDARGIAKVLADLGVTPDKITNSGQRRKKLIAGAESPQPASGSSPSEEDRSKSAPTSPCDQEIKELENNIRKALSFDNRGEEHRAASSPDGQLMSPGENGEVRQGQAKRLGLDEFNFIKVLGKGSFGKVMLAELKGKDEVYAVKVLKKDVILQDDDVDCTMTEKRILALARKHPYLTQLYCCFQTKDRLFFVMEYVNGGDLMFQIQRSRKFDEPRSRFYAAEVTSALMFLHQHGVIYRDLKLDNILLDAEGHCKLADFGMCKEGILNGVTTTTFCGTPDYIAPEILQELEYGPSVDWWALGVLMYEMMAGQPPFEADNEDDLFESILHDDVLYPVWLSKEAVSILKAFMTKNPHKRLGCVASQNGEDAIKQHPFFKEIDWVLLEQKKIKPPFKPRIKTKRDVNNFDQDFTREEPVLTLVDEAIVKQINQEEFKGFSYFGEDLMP
Assay: Biochemical assay for PKC epsilon (fluorescence polarization, Protein Kinase C Assay Kit, Red)
Settings: read-out: IC50 μM PKCε
// IC50 lookup, one value per entry

- NC(c1ccc(C(=O)Nc2ccncc2)cc1)C1CCCN1C(=O)C1CCc2cc(F)ccc21 (centres unmarked): 5 to 50 µM
- NC(c1ccc(C(=O)Nc2ccncc2)cc1)C1CCCN1C(=O)C1(c2ccc(Cl)cc2)CC1 (centres unmarked): 0.5 to 5 µM

[ask] # get_value(readout='IC50', item= CN(CC(N)c1ccc(C(=O)Nc2ccncc2)cc1)C(=O)Cc1ccc(Cl)c(Cl)c1 (centres unmarked) )
[reply] 5 to 50 µM

[ask] Please give the measured IC50 for this compound: NC(CNC(=O)Nc1ccccc1F)c1ccc(C(=O)Nc2ccncc2)cc1 (centres unmarked)
[reply] 0.5 to 5 µM

[ask] Entry under review: CN(CC(N)c1ccc(C(=O)Nc2ccncc2)cc1)C(=O)C1(c2ccc(F)c(F)c2)CC1 (centres unmarked) . Reported IC50?
[reply] 0.5 to 5 µM
